Data provenance: patent US8741896B2

pIC50: −log10 of the molar value.
Below are pIC50 values recorded for PI3Kβ (Homo sapiens, UniProt P42338).

molecule=Cn1ncc2c(-c3ccc(N)nc3)nc(N3CCOCC3)nc21 observed_result="5.00 to 7.00"
molecule=Cn1ncc2c(-c3ccc4[nH]cnc4c3)nc(N3CCOCC3)nc21 observed_result="5.00 to 7.00"
molecule=Cn1ncc2c(-c3cccc(O)c3)nc(N3CCOCC3)nc21 observed_result="5.00 to 7.00"

For the next question, use this compound.
Query: Look at this compound and give its reported pIC50. Cn1ncc2c(-c3cccc4[nH]ccc34)nc(N3CCOCC3)nc21
Result: 5.00 to 7.00
